measurement.description: inhibitors of triacylglycerol accumulation, primary screen, cell-based, uHTS, fluorescence, H9c2 (AID 651582)
condition.set: H9c2 cells, Nile Red lipid (TAG) fluorescence, at 12.5 µM, cells loaded with 200 µM oleic acid; measured here: DAPI nuclei count viability
The whole screen tested about 230,000 compounds, of which about 1,500 (0.65%) were called active. What follows is part of a selection rich in actives, with near analogues and random picks from the rest.
measured.property: DAPI nuclei signal change (viability), lower = more cytotoxic (%)

In [3]: df
Out[3]:
                                   molecule  quantity_unit  reported_value
0  COc1ccc(-c2cc(NC=O)c3ncc(-c4cc(OC)c(OC)c(OC)c4)n3c2)c(OC)c1              %           -24.8
1    Cc1cccc(NC(=O)c2ccc([N+](=O)[O-])o2)c1              %           -57.9
2  COc1ccc(-c2cc(NC=O)c3ncc(-c4ccccc4)n3c2)cc1OC              %           -14.8
3  COc1ccc(C(CNC(=O)c2cccc(S(=O)(=O)Nc3ccc(Br)cc3)c2)N(C)C)cc1 (stereo not given)              %             7.9
4   Cc1onc(NC(=O)c2ccc([N+](=O)[O-])o2)c1Br              %           -38.7
5             CCN1C(=O)/C(=C\N2CCOCC2)SC1=S              %            1.56
6  CCCCN1C(=O)/C(=C/C=C2/C=Cc3ccccc3N2CC)SC1=S              %            10.9
7  COc1ccc(-c2cc(NC=O)c3ncc(-c4cccc(C(=O)N(C)C)c4)n3c2)c(OC)c1              %           -42.3
8  Cc1ccc(NC(=O)CN(C)C(=O)c2ccc(Cl)c(S(=O)(=O)NCc3ccco3)c2)cc1              %           -5.08
9  Brc1ccc(CN2CC[C@H]3C=CCc4cccc(c43)C2)cc1              %            12.5

---

Reported values of DAPI nuclei signal change (viability), lower = more cytotoxic for individual entries
measurement.description: inhibitors of triacylglycerol accumulation, primary screen, cell-based, uHTS, fluorescence, H9c2 (AID 651582)
condition.set: H9c2 cells, Nile Red lipid (TAG) fluorescence, at 12.5 µM, cells loaded with 200 µM oleic acid; measured here: DAPI nuclei count viability
Screen size: about 230,000 compounds; about 1,500 (0.65%) were called active. Many of the other results were omitted from the sample, so actives are more common in it than they were.
measured.property: DAPI nuclei signal change (viability), lower = more cytotoxic (%)

In [3]: df
Out[3]:
                                    compound  reported_value
 0  COc1cccc(CNc2nc3cc(-c4csc5ccccc45)sc3c(=O)n2C)c1            4.67
 1  C=CCOC(=O)N1CCC2CC1c1cc(-c3ccc(OC)cc3)ccc12 (stereo not drawn)            8.41
 2  COc1ccc2sc(-c3ccc(S(C)(=O)=O)cc3)c(-c3ccc(C(N)=O)cc3)c2c1           -5.68
 3  COc1ccc2sc(-c3ccc(N(C)C)cc3)c(C#CCO)c2c1             426
 4  NC(=O)CSc1nnc(-c2cccc(S(=O)(=O)N3CCOCC3)c2)o1            2.86
 5  COc1ccc2sc(-c3ccc(S(C)(=O)=O)cc3)c(C#Cc3cncn3C)c2c1            54.1
 6  CC(C)(C)OC(=O)C[C@@H]1C/C=C\C[C@@H](CC(=O)N(CCO)Cc2ccccc2)C(=O)N[C@H](Cc2ccccc2)COC1=O           -3.76
 7  CC(=O)NC(c1cccc(F)c1)c1nc(-c2cccc(F)c2)cs1 (stereo not drawn)             2.1
 8  COc1ccc(S(=O)(=O)N2CCc3ccccc32)cc1C(=O)Nc1cc(S(C)(=O)=O)ccc1Cl           -36.5
 9  CCN(CC)CCN(C(=O)c1ccc2c(c1)CCCC2)c1nc2c(OC)cccc2s1              40
10  CCN(c1ccccc1)S(=O)(=O)c1ccc(C(=O)Nc2ccccc2OC)cc1            2.43
11  COc1ccc2sc(-c3ccc(N(C)C)cc3)c(-c3ccc4cc[nH]c4c3)c2c1             224
12   O=C(CCl)NNc1nc(-c2ccccc2)c2cc(Cl)ccc2n1           -5.54
13  Cc1ccn(CC(=O)NC2CCCN(Cc3ccccc3F)C2)n1 (stereo not drawn)            1.69
14             Cc1nnc(N/N=C/c2cccs2)[nH]c1=O            4.89
15  O=C(CCl)N(Cc1cccc([N+](=O)[O-])c1)c1cccc(Cl)c1          0.0094
16  CCc1ccc(OCC(O)CN2CCN(CCO)CC2)cc1 (stereo not drawn)            4.43
17  O=C(Cc1ccccc1)N1CCN(S(=O)(=O)c2ccc([N+](=O)[O-])cc2)CC1           -3.05
18      COc1ccc(C(=O)OCC(=O)Nc2cc(C)on2)cc1F           -5.17
19             CC(C)(c1ccccc1)c1ccc(OCCN)cc1            10.8
20      Cc1nc2ccccn2c(=O)c1NC(=O)c1ccc(Br)o1            4.97
21      O=C(COC(=O)c1cccc(Cl)c1Cl)NC1CCCCCC1            6.13
22  COc1ccc(C(=O)Nc2nc(-c3ccc(OC)cc3)c(-c3ccc([N+](=O)[O-])cc3)s2)cc1           -4.41
23  COc1ccc(-c2sc3ccc(OC)cc3c2C#Cc2ccccn2)cc1            5.72
24  CC(C)C[C@H](CO)Nc1nc(N(C)c2cccc(Cl)c2)c2ncn(C(C)C)c2n1           -1.92
25  O=C(OC12CC3CC(CC(C3)C1)C2)c1ccc(NCc2cc(O)ccc2O)cc1           -61.6
26  CN(C)CCCN(C(=O)COc1ccccc1)c1nc2c(Cl)cccc2s1          -0.936
27   COC(=O)c1ccc(C)c(NC(=O)Cn2c(C)csc2=O)c1            5.24
28  O=[N+]([O-])c1ccc(C=NN=Cc2ccc([N+](=O)[O-])cc2)cc1            -4.6
29  COc1cccc(NC(=O)c2cc(S(=O)(=O)N3CCc4ccccc43)cn2C)c1           -2.57
30   CN1CCn2cnc(C(=O)NCC(=O)OC(C)(C)C)c2C1=O           -1.68
31              Cc1ccccc1Nc1nnc(C)c(=O)[nH]1            1.64
32    COc1ccc(/C=C2\CCc3ccccc3C2=O)c(OC)c1OC           -2.46
33  COC(=O)c1ccc(CN2CCCC(C(=O)Nc3cccc(-n4cnnn4)c3)C2)cc1 (stereo not drawn)            3.39
34           O=C(Nc1ccccc1Cl)Nc1cccc2cccnc12            2.86
35  CC(C)CCOc1ccc(C(=O)Nc2cc(S(=O)(=O)N3CCOCC3)ccc2N2CCOCC2)cc1           -52.3
36  CCCCNc1c(-c2ccc(OC)c(Sc3ccc(OC)cc3)c2)nc2ccc(Cl)cn12            65.8
37  CCN(CC)C(=O)CN(c1cccc([N+](=O)[O-])c1)S(=O)(=O)c1ccccc1           -11.2
38    Cc1cc(NC(=O)CSc2nc3c(cc2C#N)CCCCC3)no1              24
39  CC(=O)Nc1ccc2nc(NC(=O)CS(=O)(=O)c3ccc(F)cc3)sc2c1           -3.72
40  COc1ccc(S(=O)(=O)N(C)C)cc1NC(=O)COC(=O)c1n[nH]c2ccccc12           -4.57
41  CCCCc1ccc(S(=O)(=O)NC(=O)C2(C)CCN2C(=O)c2c(C)noc2C)cc1 (stereo not drawn)            2.79
42           COC(=O)c1ccc(NCc2cc(O)ccc2O)cc1           -40.6
